TARGET DESC: Acrosin (purified from boar sperm) (Sus scrofa, UniProt P08001)
Construct: purified from boar sperm; from tissue; host or cells: boar sperm
Sequence (P08001 40-338 limits assumed): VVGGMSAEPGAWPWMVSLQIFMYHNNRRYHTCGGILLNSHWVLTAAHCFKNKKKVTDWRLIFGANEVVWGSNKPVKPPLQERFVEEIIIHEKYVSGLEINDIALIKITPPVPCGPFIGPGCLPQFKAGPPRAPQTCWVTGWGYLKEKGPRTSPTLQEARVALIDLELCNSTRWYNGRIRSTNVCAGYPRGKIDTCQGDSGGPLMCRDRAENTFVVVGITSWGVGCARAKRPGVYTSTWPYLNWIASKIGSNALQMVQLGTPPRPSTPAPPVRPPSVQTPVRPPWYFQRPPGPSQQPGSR
Sequence (P08001 17-39 limits assumed): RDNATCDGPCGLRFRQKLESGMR
PROTOCOL DESCRIPTION: Acrosin inhibition in vitro (BAPNA substrate)
Type: biochemical
RUN CONDITIONS: sodium salts; Conc. of Test Solution 1 Mg/ml
QUANTITY: Inhibition (units/mg.)

COMPOUND | QUANTITY | READOUT VALUE
CCCCCCCC/C=C\CCCCCCCCOS(=O)(=O)O | Inhibition (units/mg.) | 152,000 units/mg.
CCCC/C=C\CCCCCCCCOS(=O)(=O)O | Inhibition (units/mg.) | 160,000 units/mg.
CCCCCCCCCCCCCCCCCCCCCCCCCCCOS(=O)(=O)O | Inhibition (units/mg.) | 100,000 units/mg.

Request: Field request: Inhibition (units/mg.) | item: CC(C)CCCCCCCCCCCOS(=O)(=O)O
Result: 172,000 units/mg.

Request: Tell me the measured Inhibition (units/mg.) of CCCCCCCCCCC(CCC)OS(=O)(=O)O (stereo not drawn) , please.
Result: 102,000 units/mg.

Request: Request the reported Inhibition (units/mg.) associated with CCCCCCCCCC(CCCCCC)OS(=O)(=O)O (stereo not drawn)
Result: 123,000 units/mg.

Request: Can you share its Inhibition (units/mg.)? I mean this compound: CC(C)CCCC(C)CCCC(C)CCOS(=O)(=O)O (stereo not drawn)
Result: 29,000 units/mg.

Request: Recorded Inhibition (units/mg.) for CCCCCCCCCCCCCCCCCCCCCCCCOS(=O)(=O)O , please?
Result: 123,000 units/mg.

Request: Would you kindly share the measured Inhibition (units/mg.) for CCCCCCCCCCCCCCCCCCCCCCOS(=O)(=O)O ?
Result: 300,000 units/mg.

----------
TARGET DESC: Acrosin (purified from boar sperm) (Sus scrofa, UniProt P08001)
Construct: purified from boar sperm; from tissue; host or cells: boar sperm
PROTOCOL DESCRIPTION: Acrosin inhibition in vitro (BAPNA substrate)
Type: biochemical
RUN CONDITIONS: sodium salts; Conc. of Test Solution 1 Mg/ml
QUANTITY: Inhibition (units/mg.)

Use these answered entries as a reference point.
MOLECULE | Inhibition (units/mg.)
CCCCCCCCCC(CCCCCCCC)OS(=O)(=O)O (stereo not shown) [9-octadecyl] | 148,000 units/mg.
CCCCC/C=C\C/C=C\CCCCCCCCOS(=O)(=O)O [linoleyl] | 210,000 units/mg.
CCCCCCCCCCCCC(C)OS(=O)(=O)O (stereo not shown) [2-tetradecyl] | 87,000 units/mg.
CCCCCCCCCCCCCCOS(=O)(=O)[O-].[Na+] [n-tetradecyl, sodium n-tetradecyl sulfate] | 960,000 units/mg.
CCCCCCCCC(CCCCCCC)OS(=O)(=O)O (stereo not shown) [8-hexadecyl] | 28,000 units/mg.
CCCCCCCCC(CCCCC)OS(=O)(=O)O (stereo not shown) [6-tetradecyl] | 90,000 units/mg.
CC(C)CCCC(C)CCOS(=O)(=O)O (stereo not shown) [tetrahydrogeranyl] | 240,000 units/mg.
CCCCCCCCCCC(CCCCCCCC)COS(=O)(=O)O (stereo not shown) [2-octyldodecyl] | 132,000 units/mg.
CCCC/C=C/CCCCCCCCOS(=O)(=O)O [myristeladyl] | 216,000 units/mg.

Next up:
Request: Query (molecule): CCCCCCCC(CCCCCC)OS(=O)(=O)O (stereo not shown) [7-tetradecyl] ; field requested: Inhibition (units/mg.)
Result: 112,000 units/mg.

----------
Let's look at some molecules and their measured Inhibition (units/mg).
TARGET DESC: Acrosin (purified from boar sperm) (Sus scrofa)
Construct: purified from boar sperm; from tissue; host or cells: boar sperm
PROTOCOL DESCRIPTION: Acrosin inhibition in vitro (BAPNA substrate)
Format: biochemical
Design: dose or concentration left out as unconfirmed
RUN CONDITIONS: other salts

Some solved cases for reference:
MOLECULE | READOUT VALUE
CCCCCCCCCCCCCCOS(=O)(=O)O [CH3 (CH2)13 Ca] | 48,000 units/mg
CCCCCCCCCCCCCCOS(=O)(=O)O [CH3 (CH2)13 K] | 62,000 units/mg
CCCCCCCCCCCCCCOS(=O)(=O)O [CH3 (CH2)13 Li] | 58,000 units/mg
CCCCCCCCCCCCCCOS(=O)(=O)O [CH3 (CH2)13 Mg] | 59,000 units/mg
CCCCCCCCCCCCOS(=O)(=O)O | 90,000 units/mg

Kindly review the next molecule as well.
Request: Find the measured Inhibition (units/mg): item CCCCCCCCCCCCCCOS(=O)(=O)O [CH3 (CH2)13 NH4] , target or system Acrosin (purified from boar sperm) (Sus scrofa).
Result: 47,000 units/mg

----------
Recorded % Inhibition values for a group of compounds are listed next.
TARGET DESC: Testicular bovine hyaluronidase (Bos taurus, UniProt Q2YDK3)
Construct: purchased Sigma Chemical Company; host or cells: bovine testis
Sequence (Q2YDK3 36-553): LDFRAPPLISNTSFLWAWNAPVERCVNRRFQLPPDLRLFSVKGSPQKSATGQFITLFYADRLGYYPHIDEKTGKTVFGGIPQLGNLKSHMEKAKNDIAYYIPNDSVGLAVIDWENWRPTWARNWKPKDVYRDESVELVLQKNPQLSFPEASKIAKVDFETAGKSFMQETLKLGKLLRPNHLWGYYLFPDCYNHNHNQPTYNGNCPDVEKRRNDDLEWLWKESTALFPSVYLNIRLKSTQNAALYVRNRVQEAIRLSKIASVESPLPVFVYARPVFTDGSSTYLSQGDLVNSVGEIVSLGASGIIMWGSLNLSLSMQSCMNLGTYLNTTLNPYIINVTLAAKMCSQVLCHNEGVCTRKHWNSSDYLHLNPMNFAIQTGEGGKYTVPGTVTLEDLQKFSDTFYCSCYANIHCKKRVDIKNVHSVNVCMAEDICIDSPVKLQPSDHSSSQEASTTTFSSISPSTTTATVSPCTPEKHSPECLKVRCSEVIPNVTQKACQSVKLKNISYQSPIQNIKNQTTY
PROTOCOL DESCRIPTION: Hyaluronidase inhibition in vitro (chondroitin sulfate agar plate)
Format: biochemical
RUN CONDITIONS: other salts; Conc. of Test Sol. 10 mg/ml
Numbers only here, please. The scale is %.

These recorded examples may help you get a feel for the data.
COMPOUND | UNIT INFO | % Inhibition
CCCCCCCCCCCCCCOS(=O)(=O)O [CH3 (CH2)13 Li] | % | 27
CCCCCCCCCCCCCCOS(=O)(=O)O [CH3 (CH2)13 Ca] | % | 38
CCCCCCCCCCCCCCOS(=O)(=O)O [CH3 (CH2)13 NH4] | % | 14
CCCCCCCCCCCCCCOS(=O)(=O)O [CH3 (CH2)13 Mg] | % | 14

Request: Sample CCCCCCCCCCCCCCOS(=O)(=O)O [CH3 (CH2)13 K] — what was its % Inhibition?
Result: 27

----------
TARGET DESC: Acrosin (purified from boar sperm) (Sus scrofa, UniProt P08001)
Construct: purified from boar sperm; from tissue; host or cells: boar sperm
PROTOCOL DESCRIPTION: Acrosin inhibition in vitro (BAPNA substrate)
Assay type: biochemical
RUN CONDITIONS: sodium salts; Conc. of Test Solution 10 Mg/ml
# Inhibition (units/mg.) annotations

Past entries and their recorded results:
COMPOUND | Inhibition (units/mg.)
CCCCCCCCCCCCCCCCOS(=O)(=O)O [n-hexadecyl] | 15,200 units/mg.
CCCCCCCCCCCCCCCCCCOS(=O)(=O)O [n-octadecyl] | 26,000 units/mg.
CCCCCCCCCCCCCOS(=O)(=O)O [n-tridecyl] | 3,200 units/mg.
CCCCCCCCCCCCCCCOS(=O)(=O)O [n-pentadecyl] | 14,300 units/mg.
CCCCCCCCCCCCCCOS(=O)(=O)[O-].[Na+] [n-tetradecyl, sodium n-tetradecyl sulfate] | 14,200 units/mg.
CCCCCCCCCCCCCCCCCOS(=O)(=O)O [n-heptadecyl] | 18,300 units/mg.

Request: For CCCCCCCCCCCCCCCCCCCCOS(=O)(=O)O [n-eicosyl] , what is its reported Inhibition (units/mg.)?
Result: 31,800 units/mg.

Request: // Inhibition (units/mg.) lookup, key: CCCCCCCCCCCOS(=O)(=O)O [n-hendecyl]
Result: 0 units/mg.

----------
TARGET DESC: Testicular bovine hyaluronidase (Bos taurus, UniProt Q2YDK3)
Construct: purchased Sigma Chemical Company; host or cells: bovine testis
PROTOCOL DESCRIPTION: Hyaluronidase inhibition in vitro (chondroitin sulfate agar plate)
Type: biochemical
RUN CONDITIONS: sodium salts; Conc. of Test Solution 1 mg/ml
Procedure: The inhibition of hyaluronidase is assessed using chondroitin sulfate as the enzyme substrate according to the following procedure: Agar plates containing chondroitin sulfate (0.1 percent) are prepared by the following method: water solutions of 1 percent agarose, 2 M sodium chloride (0.1 vol.), 1 M sodium acetate (pH 5.0, 0.1 vol), and sodium azide (0.5 mg./ml., 0.1 vol.) are mixed and the mixture is brought to the boiling temperature. […]
QUANTITY: inhibition at 1000 µg/mL (%)

Some molecules with known inhibition at 1000 µg/mL results, for comparison:
MOLECULE | TARGET DESC | UNIT INFO | inhibition at 1000 µg/mL
CC(C)CCCC(C)CCOS(=O)(=O)O (centres unmarked) [tetrahydrogeranyl] | Testicular bovine hyaluronidase (Bos taurus, UniProt Q2YDK3) | % | 0
CCCCCCCCC(CCCCC)OS(=O)(=O)O (centres unmarked) | Testicular bovine hyaluronidase (Bos taurus, UniProt Q2YDK3) | % | 12
CCCCC/C=C\C/C=C\CCCCCCCCOS(=O)(=O)O | Testicular bovine hyaluronidase (Bos taurus, UniProt Q2YDK3) | % | 0
CCCCCCCCCCC(CCCCCCCC)COS(=O)(=O)O (centres unmarked) | Testicular bovine hyaluronidase (Bos taurus, UniProt Q2YDK3) | % | 0
CCCC/C=C\CCCCCCCCOS(=O)(=O)O | Testicular bovine hyaluronidase (Bos taurus, UniProt Q2YDK3) | % | 13
CCCCCCCCCC(CCCCCCCC)OS(=O)(=O)O (centres unmarked) | Testicular bovine hyaluronidase (Bos taurus, UniProt Q2YDK3) | % | 7
CCCCCCCCCC(CCCCCC)OS(=O)(=O)O (centres unmarked) | Testicular bovine hyaluronidase (Bos taurus, UniProt Q2YDK3) | % | 0
CCCCCCCC/C=C\CCCCCCCCOS(=O)(=O)O | Testicular bovine hyaluronidase (Bos taurus, UniProt Q2YDK3) | % | 0
CCCCCCCCCCC(CCC)OS(=O)(=O)O (centres unmarked) | Testicular bovine hyaluronidase (Bos taurus, UniProt Q2YDK3) | % | 0

[P] CCCCCCCCCCCCCCCCCCCCCCOS(=O)(=O)O
[Q] CCCC/C=C/CCCCCCCCOS(=O)(=O)O
Request: Of P and Q , which shows the smaller inhibition at 1000 µg/mL value? // output: label of the selected item
Result: P
